Values were extracted from the domain aggregation screens of Martell et al. (2025).

protocol: soluble fraction after stress (log2 fold change); higher = more stays soluble; pooled small domains, quantitative proteomics
assay-setup: stress: 50 degC
measurement-kind: soluble fraction (log2)

> print(dat)
                                   sequence         measurement.kind  measurement
1  HMGEIHAQIPGLVSHLFVKEGNTVQVEQKLFILEAMKMENEIDSPIQGTVKRIHIATGSKVEKGDLIMEIS  soluble fraction (log2)       -0.505
2  HMSLAVFLQGLLEEKQLKKADVIRRTGMEPTYGYHIFDGHKKHPARSKVLLLALAMGLTVKEAQHLLYYAG  soluble fraction (log2)       -0.116
3  HMKPVYNKVEIPRGGEYALVLSDGTKVHLNSMSSLRFPVAFTTGKREVELQGEAYFEVSKTGQPFIVNV  soluble fraction (log2)      -0.0523
4  HMQATETFSLIVPMSSAGNRLDVVLSELLPNFSRKKIQDAIKNGDATLNGKAPKIRDKVYGGENITITLIL  soluble fraction (log2)       -0.432
5  HMTHEIKIKSHSLFASEGTKYQWYLNNIKINDATSQELEITSPGIYKLEMTNFDGDVIEKQIIVGLTNS  soluble fraction (log2)        -2.94
6  HMQFYSGLEARLMDPNTPEVFDDPISLMAFLQQKNISRVELEDNLLLPYLKEMAGQPIPKAELLEIIRK  soluble fraction (log2)       -0.475
7  HMHPSNQELTKVLAQGSELVLAQKYIEASQIFTRVIEIDQTWAEAWNKRATVFYLLQNYEASQKDIDEV  soluble fraction (log2)       0.0182
8  HMIADPLVINKLMDSMALAINDYNPDSVEPVLDELRQYFSENQLRELSKAMDDFDFDEALNALTLLRT  soluble fraction (log2)       -0.382

###

The reader will find reported soluble fraction (log2) values listed item by item below.
protocol: soluble fraction after stress (log2 fold change); higher = more stays soluble; pooled small domains, quantitative proteomics
assay-setup: stress: 50 degC
measurement-kind: soluble fraction (log2)

> print(dat)
                                   sequence         measurement.kind  measurement
1  HMQENKVLEGKVLEKKKKKVFVDLSPFGVGVIRGVNYLEAKNELKDIEEGDNIKVRVLEIDNENGFIELAL  soluble fraction (log2)        0.271
2  HMEHTPHGVALLRTLMDQYGLKAADLANELGSKSNVSNILNGRRALTVSHIKMLAERFNLPADAFI  soluble fraction (log2)       -0.914
3  HMNDTLQEYFEALERLKSNNPINVPKNTKINNDSVALEAGRKRGSIKKSREIFAELIEAINNAS  soluble fraction (log2)      -0.0859
4  HMKQLNKRQDDILSLAEKEGYVSVENLAKTFTVSQQTIRRDINYLSDHEFLVRTHGGAFYSSG  soluble fraction (log2)      0.00837

###

protocol: soluble fraction after stress (log2 fold change); higher = more stays soluble; pooled small domains, quantitative proteomics
assay-setup: stress: 50 degC
measurement-kind: soluble fraction (log2)

> print(dat)
                                    sequence  measurement
 1  HMGKAYMVPDVKNKSVNQAQLLLADKHMNGVVVDSSYVKELPAGIVLDQTPVGGMKVKEGRTVYLTINSD      -0.0262
 2  HMTENIPPVKIEEMRQKWQDIVLLHGVTSGRKIKSGQATYIWLYRNDQNWLLTFNSRHLSQPQV        0.145
 3  HMKKYDIKEAQEIAEINRIPGLVTTSHGRRVYFDPKIMQYVSEEQIVKKYGQKTVKMLDQWYVSNILNK      -0.0388
 4  HMGSLQPLLLAAIDALQTHIRSGLPFRVEERLAELDQFRTELQNGSVPPQRGVNRLWAFYEDEFRL       -0.798
 5  HMAVSTFGRITASSLNVRSGPSTDHEKVGSLAAGRVVELLEESDGWYRIENGYISTEYVTIVDPSQ       -0.355
 6  HMEPMNMYSSIKKVIGVVSGKGGVGKSLVTASLARMMRAKGYHVGIMDADITGPSIPKMYGLHEMA         0.42
 7  HMADRDKYIIMGQQLLRAAFEHFGKKATDKALENAANKLRISDVPELYARLGSAELQPRDVINVIFPD      -0.0534
 8  HMFKINNIIVSGLSEKSNLQTSEEIKNILFENIFFIKKDVLFKILEKNNLINSFEIKKIYPDTIEVKIKKT        0.153
 9  HMRSRHYRFSTPFLDRLIAEIDWNSDNALSIFNQKLVHFDFLKYFSAIQPGSIVEIENLNFIWTGKRLEAH        -2.55
10  HMTPQVTVPDVTGQSFASAKQVLESLGLTVKQQGSTGENDKVIGQNPTSGNADKGATITLTTQDS        0.343
11  HMIDRADLWEALRKLPEDTLKLFSLHFEKGMTHDEISKHTDIPVGTVKTKLRRGLIEARKLAREF       -0.795
12  HMTEPKILTAEESQRLDLILVQQWPELGRRALRELVQQGGVRINGELALKAGQYVQAGERVEVAVP       0.0571
13  HMAGSTAASKHALALLNTARHSIRDGNLTSAAAEIKQALATSQEQIVITEARSLMTAMEARATTRRATVLQ       -0.168
14  HMYKDVVVPNTVGDSEEKAYQTLSALGLVVNITYDEDASKSDRVVTSQNPTNKTIKEGESVNIVVNKQP       0.0711
15  HMAYLTGFHAIEELIRAGKAKGPLLVANAGPRARTIMSLATDNKIRIDRLGEHELNRLAPGNRGIALYVE         0.13
16  HMNQEQQSAVMSALKATLPDLEAALEARQFKESKQLLKTAQNQFQQLDGRNRRGFQARIQLLAGQFRELS       -0.227
17  HMGKRGKEMQTAVLAILRASDRPYSAYELLESLKDIYPKIAPPTVYRALAALTQRGQIRRLESLNAFI       -0.325

###

protocol: soluble fraction after stress (log2 fold change); higher = more stays soluble; pooled small domains, quantitative proteomics
assay-setup: stress: 50 degC
Listed here: items and their measured soluble fraction (log2).
measurement-kind: soluble fraction (log2)

> print(dat)
                                   sequence  relational.operator  measurement
1  HMTVSIGSVIARERRLRGDTQQELAERLGVSKAAVSKWEVGQSIPDVTLLPRIAAYFSLTLDEL                    =        -2.18
2  HMLARFSGIALNTWTQADVERTFGPPMLVERVARFDGDIWTYRFMDDYEPRMAHIHIDRAGTVRQLVF                    =        -2.77
3  HMIMNLNVLANNVRRLRTAQRLSQSALASKAGLSVPAIKNLENARNEPRVNTVQVIAHALEVRLQDLFAPT                    =        -1.62
4  HMIVEIVPSALHGERVDRIVAFILDVSRSVASGLVERGAVHVDGSVETSGKVRLVEGQEVSVDPSQVPG                    =        -0.46
5  HMTISDEAMQAGRDAFIQALVAMGAEKNADAMASIEKALSADPGNKEYLATRDLIKKSMGMKK                    =         0.44
6  HMNSLTVPDITNRTLAEASQVLLDMGLTPIPDAVAKDGVGDDVVYAQSPPPNVGAREGDVVTITYNPA                    =        0.156
7  HMKVFTEDEMLEKIKEYLSTNSYINRRVMETQFGLRQNIALKWLKHFTEIGVLRKEGERNSPIYFLNN                    ≥         0.62
8  HMSVTIENQINTYFQTRDKISRDELVALIKKDFANWTDNTINIYVSSLQKRGIIHSLSRGMYALGN                    =        -1.98

###

protocol: soluble fraction after stress (log2 fold change); higher = more stays soluble; pooled small domains, quantitative proteomics
assay-setup: stress: 50 degC
Decide using soluble fraction (log2): a value greater than or equal to -0.1 is Satisfied, a smaller one is Not satisfied.

> print(dat)
                                    sequence     class.name
 1  HMDLPAEFSKPELETLFKRGKQSGELSLTEVRDALEAAQLPNKKTQTKVLKVLSDNAIHVLMDG      Satisfied
 2  HMTTIFDNINGELRRRHLTQQDLAKTIEIDRRTWSKWQDKNDMPASVLLQIAKWLNVTLDYLTRD  Not satisfied
 3  HMISKAQLFSEEELTELYRATGYQLENDPEIHREQFEALQAVRAKIEYAVPDVQEKLEQEQNLGQQ      Satisfied
 4  HMYHADLIGLEARSTAGDKLGEVNAVYNFGAGDLIEIKMTDGNLEMLPFTRQYVPTVSIKDGFIIVQM  Not satisfied
 5  HMIYMIDPNDEIAVKLDEIYQRYLNRTIDPEGLIFFYNQIRNAQMGYSDVEKRILESPEYVSIPK  Not satisfied
 6  HMPAKIIKKSFVYNPIHRDTEYLAQFLQGEGQVSASGDKLVYYGTVEDISRIKSVLQSVDTPS      Satisfied
 7  HMSEYTRGELVSSLEAGEVAAVSIRPNRETPTGEAQIVLSDGQHRVLYVTDVREIEELVSSYGLNPQVEK      Satisfied
 8  HMSYTPGQWVEASMPNATFFRIVPSGNATADKMLAVATPMKVISTSGTYVKVELDSGDVGFVPEIMV  Not satisfied
 9  HMIDFDEQGNLWVHEMGPRHGDELNLIEKARNYGYPTVSQGDHYSGVKISNHEDIPIFKSPEKAWVPAISP      Satisfied
10  HMKTGIGIVEANGGLRLRSQASTSSDVLSTAHNGDNVVVIRQVGNWYLVNYNLKIGYMHSDYITFKE  Not satisfied
11  HMGRWQPSTSAKQHGESALLLERLLHLERLTVSEAFHVLTINHRLNLSLPEYRSLLAVVQLPK  Not satisfied
12  HMPKMDGLTVMEQVNQDHFVNKRPYFIVITAVGQEKITEDAFNKGANYYVMKPFNNNMLLERIKSVRK      Satisfied
13  HMRVPQWLVDKIAAAGIDTHRSGPALKALAAKAGTPEQLDQAIARAKALRRRTGSTQSLNVGLLGSILEGT  Not satisfied
14  HMVREVGYNAFLAMLDSGAVKEVARDESEGQITFLATDEKGKERVYKTGIWPDDTLTERLNTAGVEFA      Satisfied
15  HMSMEIQEIIRQLREKNDWSQEDMAERVGLSKNGYAKIERGETNLNLERLEQIANLFDLSVIDLIEMS  Not satisfied
16  HMKKMSFKEAFLKYVEIKDNPYNMESVKMLVSLQPLIVKAYSILGVDKVRRLNYVKTKIQDAIINGD  Not satisfied
17  HMEFDIDAAIHAALEPQAVMRAWFGHEGREYPEDFGVVFFRGWESFTHQEKVEAVRDAKKVLDRAVR  Not satisfied
